Source listed as paper PMC11012289.

molecular target: IRAP (Homo sapiens, UniProt Q9UIQ6); construct: The screen was performed with the soluble truncated IRAP enzyme; made in house; test: Deselection fluorescence IRAP assay with 10 µM zinc; assay type: biochemical; details: 10 µM ZnSO4 in assay buffer; read-out: Fluorescence + Zn pIC50 (converted)
Sequence (Q9UIQ6 155-1025 limits assumed): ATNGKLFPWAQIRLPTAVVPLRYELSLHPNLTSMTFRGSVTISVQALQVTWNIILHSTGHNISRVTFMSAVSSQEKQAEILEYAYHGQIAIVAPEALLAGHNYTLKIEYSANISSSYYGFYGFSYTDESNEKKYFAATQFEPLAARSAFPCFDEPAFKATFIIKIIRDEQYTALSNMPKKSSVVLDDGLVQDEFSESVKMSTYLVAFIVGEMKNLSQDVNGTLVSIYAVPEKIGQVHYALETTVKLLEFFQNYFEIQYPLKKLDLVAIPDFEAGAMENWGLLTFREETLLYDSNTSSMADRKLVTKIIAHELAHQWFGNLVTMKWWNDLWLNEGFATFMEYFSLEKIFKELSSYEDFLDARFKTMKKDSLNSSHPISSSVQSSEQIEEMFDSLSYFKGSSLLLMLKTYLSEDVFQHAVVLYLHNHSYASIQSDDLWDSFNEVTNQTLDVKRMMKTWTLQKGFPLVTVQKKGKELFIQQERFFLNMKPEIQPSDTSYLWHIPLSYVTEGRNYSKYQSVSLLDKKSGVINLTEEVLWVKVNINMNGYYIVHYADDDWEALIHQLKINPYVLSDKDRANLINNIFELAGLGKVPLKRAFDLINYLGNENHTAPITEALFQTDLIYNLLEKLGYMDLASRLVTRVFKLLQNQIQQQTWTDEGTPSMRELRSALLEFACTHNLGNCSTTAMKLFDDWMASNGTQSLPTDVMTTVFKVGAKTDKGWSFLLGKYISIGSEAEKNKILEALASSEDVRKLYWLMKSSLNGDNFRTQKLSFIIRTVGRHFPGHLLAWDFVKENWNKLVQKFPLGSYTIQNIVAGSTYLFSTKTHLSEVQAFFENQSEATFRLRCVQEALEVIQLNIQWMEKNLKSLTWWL
Parameter Measured: IC50 (nM)

O=C(NO)C(CS(=O)(=O)N1CCC(c2ccc(F)cc2Cl)CC1)C1CCOCC1 (stereo not drawn) = 1290

(P) COc1ccc(S(=O)(=O)CCC(CCCc2ccccc2)C(=O)NO)cc1 (stereo not drawn)
(Q) O=C(NO)C(CS(=O)(=O)N1CCC(c2ccc(F)cc2Cl)C1)C1CCOCC1 (stereo not drawn)
When their IC50 values are compared, which is larger, P or Q ? Reply briefly: the label of your chosen item.
P
